Experiment: MTS cytotoxicity assay, HUVEC
Assay type: cell-based
Details: human, HUVEC cells (umbilical vein endothelial cells); MTS assay, 72-h incubation, mean ± SD of 3 independent experiments; read-out: IC50 cytotoxic activity HUVEC
PROPERTY_MEASURED: IC50 at 72 h

C[C@]12CC[C@@H]3c4ccc(O)cc4CC[C@H]3[C@@H]1CC[C@@]2(O)c1cn(Cc2cc(Cn3cc([C@]4(O)CC[C@H]5[C@@H]6CCc7cc(O)ccc7[C@H]6CC[C@@]54C)nn3)cc(OCCO)c2)nn1 : < 0.0122 µM

Prompt line: Give the measured IC50 at 72 h of C[C@]12CC[C@@H]3c4ccc(O)cc4CC[C@H]3[C@@H]1CC[C@@]2(O)c1cn(Cc2cccc(Cn3cc([C@]4(O)CC[C@H]5[C@@H]6CCc7cc(O)ccc7[C@H]6CC[C@@]54C)nn3)n2)nn1 [ED, reference compound] .
Response line: 0.0244 µM

Prompt line: Give the measured IC50 at 72 h of COc1cc2c(cc1O)CC[C@@H]1[C@@H]2CC[C@]2(C)[C@@H](O)CC[C@@H]12 [ME, 2-methoxyestradiol, reference compound] .
Response line: 1.07 µM

Prompt line: Give the measured IC50 at 72 h of COc1cc(Cn2cc([C@]3(O)CC[C@H]4[C@@H]5CCc6cc(O)ccc6[C@H]5CC[C@@]43C)nn2)cc(Cn2cc([C@]3(O)CC[C@H]4[C@@H]5CCc6cc(O)ccc6[C@H]5CC[C@@]43C)nn2)c1 .
Response line: < 0.0122 µM

* * *

Experiment: MTS cytotoxicity assay, MRC-5
Assay type: cell-based
Details: human; MTS assay, 72-h incubation, mean ± SD of 3 independent experiments; read-out: IC50 cytotoxic activity MRC-5
PROPERTY_MEASURED: IC50 at 72 h (nM)
# output: bare number, implied unit nM

Prompt line: Give the measured IC50 at 72 h of COc1cc2c(c(OC)c1OC)-c1ccc(OC)c(=O)cc1[C@@H](NC(C)=O)CC2 [Colchicine, reference compound] .
Response line: 55
